methodNotes: Protein binding in human plasma assessed as unbound fraction
Type: ADME, cell-free
experimentalEndpoint: Fu

| lineNotation | endpointResult |
| --- | --- |
| COc1cc2ccccc2cc1C(=O)NC(=S)Nc1ccc(-c2nc3ccccc3[nH]2)cc1 | < 0.03% |
| O=C1c2ccccc2CCN1C(=S)Nc1ccc(-c2nc3ccccc3o2)cc1 | < 0.03% |
| O=C(NC(=S)Nc1ccc(-c2nc3ccccc3o2)cc1)c1ccc2ccccc2c1 | < 0.04% |
| COc1cc2ccccc2cc1C(=O)NC(=O)Nc1ccc(-c2nc3ccccc3[nH]2)cc1 | < 0.3% |

Asked: Find the recorded Fu belonging to COc1cc2ccccc2cc1C(=O)NC(=O)Nc1ccc(-c2cscn2)cc1 and report it.
Given back: < 0.3%

###

methodNotes: Mean residence time in CD1 mouse at 5 mg/kg, ip
Assay type: ADME, organism-based
testParameters: in vivo
experimentalEndpoint: MRT (h)

1 = COc1cc2ccccc2cc1C(=O)NC(=S)Nc1ccc(-c2ncc[nH]2)cc1
2 = COc1cc2ccccc2cc1C(=O)NC(=S)Nc1ccc(-c2nnco2)cc1
Asked: Please compare: 1 and 2 . Report which one has the smaller MRT value. // output: label of the selected item
Given back: 1
(1: 2.7 h, 2: 5.3 h)

###

system: UniProt P33261
Sequence (P33261 whole entry): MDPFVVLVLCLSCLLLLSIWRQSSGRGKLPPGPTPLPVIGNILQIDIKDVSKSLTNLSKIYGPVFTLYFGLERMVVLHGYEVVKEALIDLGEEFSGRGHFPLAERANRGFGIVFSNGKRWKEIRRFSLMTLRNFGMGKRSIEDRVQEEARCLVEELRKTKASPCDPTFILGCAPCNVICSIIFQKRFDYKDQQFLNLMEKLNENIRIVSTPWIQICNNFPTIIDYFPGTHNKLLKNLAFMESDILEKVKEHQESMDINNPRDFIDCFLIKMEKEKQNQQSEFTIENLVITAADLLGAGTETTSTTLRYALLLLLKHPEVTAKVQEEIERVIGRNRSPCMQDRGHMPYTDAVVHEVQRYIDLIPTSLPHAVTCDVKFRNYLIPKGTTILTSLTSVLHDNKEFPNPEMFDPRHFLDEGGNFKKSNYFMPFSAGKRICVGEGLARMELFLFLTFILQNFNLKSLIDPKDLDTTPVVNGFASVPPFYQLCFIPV
methodNotes: Inhibition of CYP2C19 (unknown origin) at 10 uM relative to control
Format: ADME
experimentalEndpoint: inhibition at 10 µM (%)

| lineNotation | system | endpointResult |
| --- | --- | --- |
| COc1cc2ccccc2cc1C(=O)NC(=S)Nc1ccc(-c2ncc[nH]2)cc1 | UniProt P33261 | 43 |
| COc1cc2ccccc2cc1C(=O)NC(=S)Nc1ccc(-c2nnco2)cc1 | UniProt P33261 | 37 |

###

methodNotes: Protein binding in mouse plasma assessed as unbound fraction
Format: ADME, cell-free
experimentalEndpoint: Fu

| lineNotation | Fu |
| --- | --- |
| COc1cc2ccccc2cc1C(=O)NC(=O)Nc1ccc(-c2nc3ccccc3[nH]2)cc1 | < 0.3% |
| O=C(NC(=S)Nc1ccc(-c2nc3ccccc3o2)cc1)c1ccc2ccccc2c1 | < 0.03% |
| COc1cc2ccccc2cc1C(=O)NC(=S)Nc1ccc(-c2nccs2)cc1 | 2.2% |

Asked: Find the recorded Fu belonging to COc1cc2ccccc2cc1C(=O)NC(=O)Nc1ccc(-c2cscn2)cc1 and report it.
Given back: < 0.3%

Asked: Find the recorded Fu belonging to COc1cc2ccccc2cc1C(=O)NC(=S)Nc1ccc(-c2nc3ccccc3[nH]2)cc1 and report it.
Given back: < 0.01%

Asked: Find the recorded Fu belonging to COc1cc2ccccc2cc1C(=O)NC(=S)Nc1ccc(-c2nc3ccccc3o2)cc1 and report it.
Given back: < 0.03%

Asked: Find the recorded Fu belonging to COc1cc2ccccc2cc1C(=O)NC(=S)Nc1ccc(-c2ncon2)cc1 and report it.
Given back: < 0.03%

###

system: UniProt:P10635
Sequence (P10635 whole entry): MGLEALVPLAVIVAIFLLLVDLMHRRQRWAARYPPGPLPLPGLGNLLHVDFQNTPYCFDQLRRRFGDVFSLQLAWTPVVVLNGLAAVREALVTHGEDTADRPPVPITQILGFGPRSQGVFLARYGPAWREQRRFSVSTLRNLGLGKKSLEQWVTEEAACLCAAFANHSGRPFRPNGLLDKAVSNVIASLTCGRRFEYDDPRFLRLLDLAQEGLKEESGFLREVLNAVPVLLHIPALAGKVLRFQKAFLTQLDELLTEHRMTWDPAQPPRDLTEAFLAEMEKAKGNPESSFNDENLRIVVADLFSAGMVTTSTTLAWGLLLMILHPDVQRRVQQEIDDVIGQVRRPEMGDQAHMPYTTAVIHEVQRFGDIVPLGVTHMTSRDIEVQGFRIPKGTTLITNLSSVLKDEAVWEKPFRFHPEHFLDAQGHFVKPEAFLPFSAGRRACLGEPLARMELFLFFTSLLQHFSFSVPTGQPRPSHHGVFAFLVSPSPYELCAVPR
methodNotes: Inhibition of CYP2D6 (unknown origin) at 10 uM relative to control
Type: ADME
experimentalEndpoint: inhibition at 10 µM (%)

I = COc1cc2ccccc2cc1C(=O)NC(=S)Nc1ccc(-c2nnco2)cc1
II = COc1cc2ccccc2cc1C(=O)NC(=S)Nc1ccc(-c2ncc[nH]2)cc1
Asked: From the recorded data, which exceeds the other in inhibition at 10 µM: I or II ? // output: label of the selected item
Given back: II
(II: 36%, I: 19%)
